measurementType: melting point

O=C1c2ccc(F)cc2C(=O)N1c1cc([N+](=O)[O-])c(Cl)cc1F; 162 to 163 °C
CSc1nc(N)nc2c1ncn2C1C=CC(CO)C1 (stereo not drawn); 152 to 154 °C
CC(C)(C)C(=O)N[C@@H](Cc1ccccc1)C(=O)N[C@@H](Cc1ccccc1)C(=O)NC(CO)Cc1c[nH]cn1 (stereo partly drawn); 124 to 130 °C

Would you kindly share the measured melting point for CC(CN1CCC(C#N)C1)NC(=O)c1c[nH]c2ncc(-c3nn(C)c4cc(Cl)ccc34)nc12 (stereo not drawn) ?
206 to 209 °C

Query COc1cccc([C@H]2O[C@H](CC(=O)NS(C)(=O)=O)C(=O)N(CC(C)(C)CO)c3ccc(Cl)cc32)c1OC next
221 to 223 °C

Please give the result for CC=C1CCC2C3CC=C4CC(O[Si](CC)(CC)CC)CC(O[Si](CC)(CC)CC)C4(C)C3CCC12C (stereo not drawn) too.
81 to 82 °C

Ok, now COC(=O)c1ccc(Cn2c(=O)c(C)c3sc(C(=O)NCc4cccc(F)c4)cn3c2=O)cc1
209 to 211 °C

Next: CCN(CCOC)C(=O)c1cc(-c2ccccc2)c(=O)n2c1-c1cc(Cl)ccc1CN2
184 to 185 °C

----------
Measured melting point values are reported for all entries that follow.

Worked examples follow.
CC(=O)OCC(=O)C1CCC2C3CCC4CC(O)C(N5CCOC(C)(C)C5)CC4(C)C3CCC12C (stereo not given); 174 to 175 °C
COc1ccc(C(O)(Cc2ccncc2)c2ccccc2)cc1OC1CCCC1 (stereo not given); 148 to 149 °C
COc1cc2c3ccc(OC)c(OC)c3n(C(=O)CCc3ccccc3)c2cc1OC; 106 to 108 °C
CCn1c(=O)c(C(N)=O)c(N)c2ccc(C)nc21; 263 to 266 °C
COc1cccc2cc3c(c(-c4ccc5c(c4)OCO5)c12)C(=O)NC3=O; 291 to 293 °C
CC(C)CCc1c(-c2ccc(S(N)(=O)=O)cc2)cnn(-c2ccc(F)c(Cl)c2)c1=O; 154 to 156 °C
CCC(=NOC)C(=NO)C(=O)NC; 168 to 170 °C
COc1cc2c(cc1-c1nc3cc(-c4ccccc4)ccc3o1)oc1ccccc12; 155 to 160 °C
O=C(NCC1CC1)c1cccnc1Oc1cncc(Cl)c1; 105 to 107 °C

Shifting focus to the compound that follows.
Fill in: melting point of CN(Cc1cc2c(=O)c(C(=O)NCc3ccc(Cl)cc3)cn(C)c2s1)C[C@@H](O)c1ccco1 is ___
159 to 162 °C

----------
Each entry below carries its recorded melting point.

Worked cases, answers included:
CC(C(=O)N(C)C)n1cc(Cl)c(-c2ccccc2)n1 (stereo not given); 73.5 to 75 °C
C[C@H](C#Cc1cc(Cc2ccc(F)cc2)cs1)N(O)C(N)=O; 105 to 108 °C
COC(=O)c1cccc(CCN(C)CCCC(C#N)(C(=O)OC)c2ccc(OC)c(OC)c2)c1 (stereo not given); 94 to 95 °C
COc1cc(-c2nc(-n3nccn3)c3c(C)c(C#N)sc3n2)cc(OC)c1OC; 208 to 210 °C

# lookup: melting point of COc1cccc2cc(C(=O)c3ccc(Cl)c(N)c3)oc12
180 °C

Data origin, for the record: a melting point compilation (Tetko et al.; mined from patent text by program, amines drawn as free bases though some values may be those of a salt)
